Some binders, each annotated with its measured pEC50 hGLPR1.
- subject of test: human GLP-1 receptor (hGLP1R) (human, UniProt P43220 24-463)
- assay summary: cell-based or functional assay
Numbered stars: 1 amine (or outer) side, 2 acyl side, 3 side chain; on linkers, the order of the positions; unused ones are H or OH. Square brackets hold non-standard residues; d marks the D form. Side chains are listed from the residue outwards. Ends that are not written are not given here. * marks the point of attachment. C20 diacid = O=C(O)CCCCCCCCCCCCCCCCCCC(=O)*; γGlu = O=C(O)[C@H](CCC(=O)[*:2])N[*:1]; AEEA = NCCOCCOCC(=O)O; Aib = CC(C)(N)C(=O)O

Examples with their reported pEC50 hGLPR1 follow.
H[Aib]EGTFTSDVSYLHEEA[Aib]LQRFLEKLV-NH2 (not fully specified (residue 25)) [SEQ ID NO: 164]    10.7 -log M
H[Aib]EGTFTSDVSRLK([AEEA-AEEA-γGlu-C20 diacid])ETAAEQRFLEHLV-NH2 [SEQ ID NO: 34]    10.6 -log M
H[Aib]EGTFTSDVSYLKEEAAEQRFLEHLV-NH2 (not fully specified (residue 14)) [SEQ ID NO: 95]    10.7 -log M
H[Aib]EGTFTSDVSYLKEEA[Aib]AQRFLEHLV-NH2 (not fully specified (residue 14)) [SEQ ID NO: 146]    11.6 -log M
H[Aib]EGTFTSDVSYLK([AEEA-AEEA-γGlu-C20 diacid])EEA[Aib]LQRFLEWLV-NH2 [SEQ ID NO: 169]    10.4 -log M

Suppose we examine the binder H[Aib]EGTFTSDVSTLK([AEEA-AEEA-γGlu-C20 diacid])EEAAQQRFLEHLV-NH2 [SEQ ID NO: 39] ; what pEC50 hGLPR1 value has been reported?
10.8 -log M

What does the record list as pEC50 hGLPR1 for H[Aib]EGTFTSDVSTLK([AEEA-AEEA-γGlu-C20 diacid])ETAASQRFLEHLV-NH2 [SEQ ID NO: 20] ?
10.7 -log M

// lookup pEC50 hGLPR1 for H[Aib]EGTFTSDVSTLKEEAAAQRFLEHLV-NH2 (not fully specified (residue 14)) [SEQ ID NO: 96]
10.9 -log M

Entry under review: H[Aib]EGTFTSDVSGLK([AEEA-AEEA-γGlu-C20 diacid])EEA[Aib]LQRFLEHLV-NH2 [SEQ ID NO: 167] . Reported pEC50 hGLPR1?
11.2 -log M

I'd like to know its pEC50 hGLPR1. The binder in question is H[Aib]EGTFTSDVSYLK([AEEA-AEEA-γGlu-C20 diacid])ETAAQQRFLEHLV-NH2 [SEQ ID NO: 58]
10.6 -log M
